Recorded values, source ChEMBL document CHEMBL4765282.

# Serine/threonine-protein kinase PAK 1 (Homo sapiens, UniProt Q13153): IC50 values follow
# Sequence (Q13153 whole entry): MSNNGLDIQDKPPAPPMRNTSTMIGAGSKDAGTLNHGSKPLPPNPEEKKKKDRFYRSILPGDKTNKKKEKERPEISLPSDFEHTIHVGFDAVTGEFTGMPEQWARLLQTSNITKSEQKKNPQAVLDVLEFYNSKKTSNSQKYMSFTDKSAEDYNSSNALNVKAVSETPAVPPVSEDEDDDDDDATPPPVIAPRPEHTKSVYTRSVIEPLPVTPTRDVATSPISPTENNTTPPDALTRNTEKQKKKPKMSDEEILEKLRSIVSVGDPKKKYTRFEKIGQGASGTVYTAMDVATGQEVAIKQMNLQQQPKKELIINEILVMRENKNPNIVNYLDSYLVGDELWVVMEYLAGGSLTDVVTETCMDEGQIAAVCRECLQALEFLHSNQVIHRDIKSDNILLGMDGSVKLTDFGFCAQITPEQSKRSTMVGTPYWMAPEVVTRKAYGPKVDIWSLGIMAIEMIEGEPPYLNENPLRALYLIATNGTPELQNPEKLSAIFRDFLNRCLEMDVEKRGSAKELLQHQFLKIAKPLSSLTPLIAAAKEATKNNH

{"structure as smiles": "Cc1cc(C)c(C(=O)N2CCC(Nc3ncnc4[nH]ncc34)CC2)c(C)c1", "target": "Serine/threonine-protein kinase PAK 1 (Homo sapiens, UniProt Q13153)", "IC50": "31.1 µM"}
{"structure as smiles": "Cc1cc(C)c(C(=O)NC2CCN(c3ncnc4[nH]ncc34)CC2)c(C)c1", "target": "Serine/threonine-protein kinase PAK 1 (Homo sapiens, UniProt Q13153)", "IC50": "6.77 µM"}
{"structure as smiles": "O=C(Nc1cccc(Cl)c1)N1CCC(Nc2ncnc3[nH]ncc23)CC1", "target": "Serine/threonine-protein kinase PAK 1 (Homo sapiens, UniProt Q13153)", "IC50": "7.18 µM"}
